Molecular target: T1, APC4100-AA
T1 chain: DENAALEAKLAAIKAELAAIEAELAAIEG
Assay: two-hybrid library CCmax;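 further: natural log of median RNA to DNA barcode read ratio; higher means stronger binding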
Details: mean of both orientations
Would you please tag the item y when its interaction score is -1 or above, and n when it is below?

- binder: "DKLAAIKAKLAAIKAKLAAIKAKNAALKG [APC1115-AA]"
  label: "y"
- binder: "DKAAALKAEAAALEAELAAEEAKNAALKG [APC3265-AA]"
  label: "n"
- binder: "DEAAALEAKNAALKAENAALEAKAAALKG [APC2543-AA]"
  label: "n"
- binder: "DKLAAIKAKLAANKAKLAAIKAELAAEEG [APC1916-AA]"
  label: "y"
- binder: "DEAAALEAEAAALEAKNAALKAKLAAEKG [APC2257-AA]"
  label: "n"
- binder: "DKLAAIKAEAAALEAENAALEAEAAALEG [APC1242-AA]"
  label: "n"
- binder: "DKAAALKAKAAALKAKNAALKAENAALEG [APC3354-AA]"
  label: "n"

The measured values listed here are drawn from paper PMC10397247.
